Test system: SF-295 CNS
Assay name: NCI tumour cell line growth inhibition, 48 h
Listed molecules paired with reported TGI

(Q) Given the molecule O=C(O)c1cccc(COc2ccc([N+](=O)[O-])cc2Cl)c1 , what is its reported TGI?
(A) > 100 µM

(Q) Given the molecule COC(=O)/C([Se]c1c(C)cc(C)cc1C)=C(/[Se]c1c(C)cc(C)cc1C)C(=O)OC , what is its reported TGI?
(A) > 100 µM

(Q) Given the molecule CC1(C)C2CC(=O)C1(C)C(O)C2Br (stereo unspecified) , what is its reported TGI?
(A) > 100 µM

(Q) Given the molecule COc1cc2c(Nc3cc(Cl)c(OC)c(Cl)c3)c(C#N)cnc2cc1OCCCN1CCN(C)CC1 , what is its reported TGI?
(A) 7.45 µM

(Q) Given the molecule Cc1cc(-c2nc3ccccc3s2)ccc1NC(=O)[C@@H](N)CCCCN , what is its reported TGI?
(A) 10.6 µM

(Q) Given the molecule O=c1[nH]cnc(NC2C=C(CO)C(O)C2O)c1[N+](=O)[O-] (stereo unspecified) , what is its reported TGI?
(A) > 100 µM

(Q) Given the molecule N/C(=N\S(=O)(=O)c1c(C(F)(F)F)cccc1C(F)(F)F)Nc1ccc(Cl)cc1 , what is its reported TGI?
(A) > 100 µM

(Q) Given the molecule NCCNCC1CCNCC1 , what is its reported TGI?
(A) > 100 µM

(Q) Given the molecule CC(C)[C@H](O)C(=O)N[C@@H](C)C(=O)N[C@@H]1C(=O)N(C)CCc2ccccc21 , what is its reported TGI?
(A) > 100 µM

(Q) Given the molecule CC(C(=O)N1C(=O)N(C(=O)C(C)C(O)c2ccccc2)C2CCCCC21)C(O)c1ccccc1 (stereo unspecified) , what is its reported TGI?
(A) > 100 µM

(Q) Given the molecule O=C1Sc2ccccc2C(=O)N2CSCC12 (stereo unspecified) , what is its reported TGI?
(A) > 100 µM

---

Tested on: OVCAR-8 ovarian
Assay name: NCI tumour cell line growth inhibition, 48 h; in the data active = GI50 below about 0.43 µM; inactive = the rest
Mark one answer only. Choices: T for active, F for inactive

For orientation, consider the following solved cases.
| Mol smiles | Cat |
| --- | --- |
| C#CCOc1cccc(Nc2ncnc3c(NC(=O)C=C)cccc23)c1 | F |
| COc1cc(/C=C\c2cc(OC)c(OC)c(OC)c2)cc(N/C=C\C(=O)c2c[nH]c3ccccc23)c1OC | F |
| Cc1ccc(OCCOCCOCCOCCOc2ccc(C)n(O)c2=S)c(=S)n1O | T |
| Cc1cc(N/N=C/c2ccccn2)nc2ccccc12 | T |

Alright, here's another molecule for you.
(Q) Per the assay record, what outcome was assigned to c1ccc2c(c1)[nH]c1c2cc[n+]2cc3c(cc12)CCCC3 ?
(A) F

---

Test system: UACC-62 melanoma
Assay name: NCI tumour cell line growth inhibition, 48 h
Property: TGI

Below are worked cases with known answers.
| Compound | Target under test | Measured value |
| --- | --- | --- |
| Cc1ccccc1C1=[N+]([O-])c2ccc(Cl)cc2C1=O | UACC-62 melanoma | 24.9 µM |
| Cc1cn(-c2cc(C(=O)Nc3cccc(-n4ccc5c(NC(=O)c6ccccc6)nccc54)c3)cc(C(F)(F)F)c2)cn1 | UACC-62 melanoma | 12.7 µM |
| CCCC(=O)C1=C(O)C(Cc2c(O)c(C)c(O)c(C(=O)CCC)c2O)=C(O)C(C)(C)C1=O | UACC-62 melanoma | > 50 µM |

(Q) Given the compound COc1ccc(-c2nc(-c3cc(OC)cc(OC)c3)[nH]c2-c2ccc(OC)cc2)cc1 , what is its reported TGI?
(A) > 100 µM
